Assay: oral bioavailability in dogs
Assay type: in vivo, beagle dogs
Conditions: both sexes, beagle, dog, plasma, 5 mg/kg, solution in pharmaceutically acceptable organic solvents with long chain fatty acid, as encapsulated dosage form (soft elastic capsules or hard gelatin capsules), printed 'as high as about 60% or more', read-out: oral bioavailability
Description: Protocol for Oral Bioavailability Dogs (beagle dogs, mixed sexes, weighing 7-14 kg) were fasted overnight prior to dosing, but were permitted water ad libitum. […] Concentrations of parent drug were determined by reverse phase HPLC with low wavelength UV detection following liquid-liquid extraction of the plasma samples. The parent drug area under the curve was calculated by the trapezoidal method over the time course of the study. […]
quantity: bioavailability

Endpoint output: bioavailability of CC(C)c1nc(CN(C)C(=O)N[C@H](C(=O)N[C@@H](Cc2ccccc2)C[C@H](O)[C@H](Cc2ccccc2)NC(=O)OCc2cncs2)C(C)C)cs1 . Value?
~60%

---

Assay: oral bioavailability in dogs
Format: in vivo, beagle dogs
Conditions: dog, in vivo, 5 mg/kg, administered as an unformulated solid in a capsule dosage form, 5 mg/kg oral dose in dogs, read-out: bioavailability
quantity: bioavailability

Please look up its bioavailability: CC(C)c1nc(CN(C)C(=O)NC(C(=O)NC(Cc2ccccc2)CC(O)C(Cc2ccccc2)NC(=O)OCc2cncs2)C(C)C)cs1 (stereo not shown) [bistosylate]
< 2%
